Read-out: solute carrier (SLC10A1), SLC10A1 (gene 6554)
method: LTEA_HepaRG_SLC10A1: Life Technologies and Expression Analysis (LTEA) Assay for solute carrier (SLC10A1) using HepaRG (AID 2283657)
stated.conditions: mRNA level, 48 h; actives raise or lower the signal
Active and inactive are the calls of the source. Rule for the calls: active = hit-call score of the fitted dose curve at least 0.9, where 1 is the maximum; inactive = score below 0.9.
Answer with one of the outcomes 1.0 = active, 0.0 = inactive

Illustrative cases are given below, each with its answer.
{"columns": ["cpd.smiles", "group.label"],
 "data": [
  ["O=C1c2ccccc2C(=O)N1CCc1noc(-c2ccc(CN3CCCCCC3)s2)n1", 1.0],
  ["C[C@]12CC[C@@H]3c4ccc(O)cc4CC[C@H]3[C@@H]1CC[C@H]2O", 1.0],
  ["CC(C)(C)c1csc(-c2cc3cc(OCc4ccccc4CC(=O)O)ccc3o2)n1", 1.0]
]}

Answer briefly: the call reported for CCN(CC)C(=O)c1cc(S(=O)(=O)Cc2ccccc2)c(N2CCC(c3ccccc3)CC2)cc1N(CC)CCN(C)C in this assay.
0.0

====

Read-out: Alpha-fetoprotein (AFP) gene, AFP (gene 174)
method: LTEA_HepaRG_AFP: Life Technologies and Expression Analysis (LTEA) Assay for Alpha-fetoprotein (AFP) gene using HepaRG (AID 2283472)
stated.conditions: mRNA level, 48 h; actives raise or lower the signal
Activity calls are given as the source filed them. How the source made its calls: active means hit-call score of the fitted dose curve at least 0.9, where 1 is the maximum; inactive means score below 0.9.
Answer with one of the outcomes active, inactive

Illustrative cases are given below, each with its answer.
{"columns": ["cpd.smiles", "group.label"],
 "data": [
  ["CCCCCCCCCCCCO", "inactive"],
  ["CO[C@H]1/C=C/O[C@@]2(C)Oc3c(C)c(O)c4c(O)c(c(/C=N/N5CCN(C)CC5)c(O)c4c3C2=O)NC(=O)/C(C)=C\\C=C\\[C@H](C)[C@H](O)[C@@H](C)[C@@H](O)[C@@H](C)[C@H](OC(C)=O)[C@@H]1C", "active"],
  ["c1ccc(C[n+]2cccc3ccccc32)cc1", "active"],
  ["Cc1cc(F)ccc1-c1cc(N2CC[C@@H](O)[C@H]2CO)ncc1N(C)C(=O)C(C)(C)c1cc(C(F)(F)F)cc(C(F)(F)F)c1", "active"],
  ["O=c1ccc2ccccc2o1", "inactive"],
  ["CCCCCCCCCCCO", "inactive"]
]}

Answer briefly: the call reported for CC(C)(C)c1csc(-c2cc3cc(OCc4ccccc4CC(=O)O)ccc3o2)n1 in this assay.
active

Answer briefly: the call reported for O=c1c(-c2ccc(O)cc2)coc2cc(O)cc(O)c12 in this assay.
inactive

Answer briefly: the call reported for CC/C(=C(/CC)c1ccc(O)cc1)c1ccc(O)cc1 in this assay.
inactive

Answer briefly: the call reported for O=C(O)c1ccccc1-n1cc(C(=O)O)c(=O)c2cc(Nc3c(F)cc(F)cc3Cl)c(Cl)cc21 in this assay.
inactive

====

subject.of.test: Muscarinic acetylcholine receptor M3 (Homo sapiens) (UniProt P20309)
Sequence (P20309 whole entry, looked up): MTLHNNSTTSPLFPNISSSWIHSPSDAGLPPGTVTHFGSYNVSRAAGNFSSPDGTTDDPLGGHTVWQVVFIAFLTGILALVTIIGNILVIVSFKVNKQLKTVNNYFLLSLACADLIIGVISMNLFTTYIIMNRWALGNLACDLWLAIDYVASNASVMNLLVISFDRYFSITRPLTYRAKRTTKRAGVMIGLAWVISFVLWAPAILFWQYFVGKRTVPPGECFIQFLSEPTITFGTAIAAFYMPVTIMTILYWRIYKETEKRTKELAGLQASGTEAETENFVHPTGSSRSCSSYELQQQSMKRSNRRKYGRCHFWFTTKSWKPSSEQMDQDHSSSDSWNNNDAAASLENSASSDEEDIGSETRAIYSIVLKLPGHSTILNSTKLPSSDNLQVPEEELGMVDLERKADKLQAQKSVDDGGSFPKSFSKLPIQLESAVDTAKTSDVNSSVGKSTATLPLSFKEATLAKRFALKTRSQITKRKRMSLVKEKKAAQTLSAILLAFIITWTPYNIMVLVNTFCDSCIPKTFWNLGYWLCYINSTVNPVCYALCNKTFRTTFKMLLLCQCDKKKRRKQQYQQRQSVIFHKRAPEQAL
method: NVS_GPCR_hM3: NovaScreen (NVS) G Protein-Coupled Receptor Assay for human Muscarinic, M3 Receptor (AID 2283272)
Records with an inconclusive call do not appear. The source made the active and inactive calls. The calls were made as follows: active = hit-call score of the fitted dose curve at least 0.9, where 1 is the maximum; inconclusive = response in the unintended direction; inactive = score below 0.9.
Kindly state AC50 for each of the entries shown.

{"columns": ["cpd.smiles", "AC50"],
 "data": [
  ["NCc1cccc(C2CCN(C(=O)c3ccc(C#Cc4ccccc4F)o3)CC2)c1", "0.929 µM (active)"],
  ["CCCCCCCCCCCC[N+](C)(C)C", "3.43 µM (active)"],
  ["O=C1c2ccccc2C(=O)N1CCc1noc(-c2ccc(CN3CCCCCC3)s2)n1", "3.96 µM (active)"],
  ["COc1ccc2cc(S(=O)(=O)N[C@H](CC(=O)N[C@H](Cc3ccc(CN4[C@H](C)CCC[C@@H]4C)cc3)C(=O)N(C)C(C)C)c3ccc4c(c3)OCO4)ccc2c1", "14.2 µM (active)"]
]}

As a next step, examine the compound that follows.
Consider Clc1cc(Cl)c2c(c1)N=C1CCCCCN1C2 . Its measured AC50 is 2.09 µM (active)
